Assay: NCI Yeast Anticancer Drug Screen. Data for the rad50 strain (AID 155);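 further: 0% = growth of vehicle-only cultures of the same strain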
Conditions: S. cerevisiae rad50 strain growth inhibition; at 50.0 µM; stronger effect = higher value
This is part of a sample that, as a whole, favours compounds with a hit. Of some 79,000 tested, about 15% had one in any assay.
Recorded growth inhibition split into classes A (below 70%), B (70% to below 90%), C (90% or more)

Lab log: CCCCCCCCCCOC(=O)c1ccccn1 — assign growth inhibition category
A

Lab log: CC(=O)Nc1ccc(S(=O)(=O)/N=C2\C=CC(=O)c3ccccc32)cc1 — assign growth inhibition category
A

Lab log: O=c1ccc([N+](=O)[O-])c[nH]1.[Ag] — assign growth inhibition category
C

Lab log: S=C(Nc1ccc2cn[nH]c2c1)Nc1ccc2cn[nH]c2c1 — assign growth inhibition category
B

Lab log: COc1ccc2c(c1)CCCN2CCCCCCCN1CCCCC1 — assign growth inhibition category
B

Lab log: Oc1cc2c(cc1C(Nc1ncccn1)c1ccc(F)cc1)OCO2 (stereo not given) — assign growth inhibition category
A

Lab log: CCCC(C)NCCCCCNc1cc(OC)cc2cccnc12 (stereo not given) — assign growth inhibition category
B

Lab log: OC(CBr)c1c(Br)ccc2ccccc12 (stereo not given) — assign growth inhibition category
A

Lab log: OC(c1cc(-c2ccc(Cl)c(Cl)c2)nc2ccccc12)C1CCCCN1 (stereo not given) — assign growth inhibition category
A

Lab log: CC1NS(=O)(=O)N(C)C1=O (stereo not given) — assign growth inhibition category
A

Lab log: CC(C)C(Sc1nc(-c2ccccc2)c(-c2ccccc2)[nH]1)c1n[nH]c(=S)n1-c1ccccc1 (stereo not given) — assign growth inhibition category
C

Lab log: Brc1ccc(N=NN2CCCC2)cc1 — assign growth inhibition category
B

Lab log: Oc1cccc2ccc(/C=C/c3ccccn3)nc12 — assign growth inhibition category
C

Lab log: Cc1c2ccccc2cc2c1ccc1cccc(F)c12 — assign growth inhibition category
B

Lab log: COc1cc(C2C(Cl)C(=O)N2NC(=O)c2ccc(NC(C)=O)cc2)cc(OC)c1OC (stereo not given) — assign growth inhibition category
A

Lab log: CCOCCOc1ccc(OCCOCC)cc1 — assign growth inhibition category
A

Lab log: O=C(Nc1ccc(Cl)cc1)Nc1nnc(/C=C/c2ccc(Cl)c(Cl)c2)o1 — assign growth inhibition category
A

Lab log: Cc1ccc([N+](=O)[O-])c2c(NCCCN(C)C)c3ccccc3nc12 — assign growth inhibition category
C

----------
Test: NCI Yeast Anticancer Drug Screen. Data for the rad50 strain (AID 155);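 further: 0% = growth of vehicle-only cultures of the same strain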
Conditions: S. cerevisiae rad50 strain growth inhibition; at 50.0 µM; stronger effect = higher value
Procedure: Growth inhibition of yeast strains with defined genetic alterations is measured as a screen for potential anti-cancer activity. Selected strains with alterations in DNA damage repair or cell cycle control were exposed to compounds and growth inhibition was measured relative to vehicle treated controls. The strain used in this assay is rad50
About 79,000 compounds went through this panel and 15% of them were active in at least one assay; those are over-represented in the sample as a whole. Where a SMILES comes first, the peptide text is derived from it. The star is where a group is joined. Cbz = O=C(OCc1ccccc1)*
Record form. Attribute: growth inhibition. Fill in for each entry.
Write the value in % as a bare number.

Name the reported growth inhibition value associated with the molecule O=C(C(=O)n1ncc(Cl)c(Cl)c1=O)n1ncc(Cl)c(Cl)c1=O
18.6

Name the reported growth inhibition value associated with the molecule CCCCCCCCCCCCCCCCOC(=O)C[n+]1cccc(C(N)=O)c1
89.8

Name the reported growth inhibition value associated with the molecule Cc1cccc2c1C1c3c(C)cccc3C(O)CC1CC2O (centres undefined)
36.5

Name the reported growth inhibition value associated with the molecule O=C(NC(Cc1ccc(O)cc1)C(=O)NC(Cc1ccccc1)C(=O)O)OCc1ccccc1 (stereo not drawn) (Cbz-Tyr-Phe-OH; configuration not given here)
-17.3

Recorded values, source PubChem BioAssay (NCI).
